- ASSAY_TARGET: human prostate specific membrane antigen (PSMA), full-length, on cells (human, UniProt Q04609 1-750)
- Sequence (Q04609 whole entry): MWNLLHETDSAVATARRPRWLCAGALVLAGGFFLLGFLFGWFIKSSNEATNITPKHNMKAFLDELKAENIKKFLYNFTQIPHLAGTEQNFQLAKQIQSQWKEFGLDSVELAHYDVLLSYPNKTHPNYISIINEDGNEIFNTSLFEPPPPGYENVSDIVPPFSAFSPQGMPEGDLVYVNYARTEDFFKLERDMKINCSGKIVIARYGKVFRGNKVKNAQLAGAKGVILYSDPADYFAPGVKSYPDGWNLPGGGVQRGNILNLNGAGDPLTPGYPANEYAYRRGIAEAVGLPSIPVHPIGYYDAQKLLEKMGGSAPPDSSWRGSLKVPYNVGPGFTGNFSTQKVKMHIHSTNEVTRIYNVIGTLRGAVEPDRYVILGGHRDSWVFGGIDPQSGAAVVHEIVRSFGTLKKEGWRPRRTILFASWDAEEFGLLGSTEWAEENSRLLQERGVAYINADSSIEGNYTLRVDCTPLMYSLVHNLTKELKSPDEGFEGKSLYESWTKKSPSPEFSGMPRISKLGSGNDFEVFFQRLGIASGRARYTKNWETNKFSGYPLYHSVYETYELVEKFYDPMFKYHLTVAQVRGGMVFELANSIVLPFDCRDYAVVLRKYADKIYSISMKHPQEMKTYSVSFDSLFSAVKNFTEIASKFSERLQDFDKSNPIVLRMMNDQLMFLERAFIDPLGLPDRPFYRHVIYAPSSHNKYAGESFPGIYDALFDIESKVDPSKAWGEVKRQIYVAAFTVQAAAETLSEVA
- METHOD_NOTES: cell-based or functional assay
READOUT_KIND: Mean IC50, cytotoxicity on DU145 PSMA cells, 48 h (nM)

BINDER: HiPEG C-His6 val-cit-PAB-MMAE (VHH, HiPEG val-cit-PAB-MMAE attached via the C-terminal His6-tag, DAR 1) VHH: EVQLVESGGGVVQPGRSLRLSCAASGFPLISYGMHWVRQAPGKGLEWVAFMTYDGSNRYYADSVKGRFTISRDNSKNTLYLQMNSLRDEDTALYYCARDRIVGGRVPDAFDIWGQGTMVTVSS
REPORTED: 5.2
//
BINDER: HiPEG B-1-A-His6 val-cit-PAB-MMAE (bispecific antibody, HiPEG val-cit-PAB-MMAE attached via the C-terminal His6-tag, DAR 1) EVQLLESGGGLVQPGGSLRLSCAASGFSFSSYAMSWVRQAPGKGLEWVSSIGENDGTTDYADSVKGRFTISRDNSKSMLYLQMNSLRVEDTAVYYCVKDGVHWGQGTLVTVSSGGGGSGGGGSEVQLVESGGGVVQPGRSLRLSCAASGFSFSGYGMHWVRQAPGKGLEWVAYISYDGSNKYYADSVKGRFTISRDNSKNTLYLQMNSLRAEDTAVYYCAKDPAWGLRLGESSSYDFDIWGQGTMVTVSS
REPORTED: 0.13
//
BINDER: HiPEG A-2-B-His6 val-cit-PAB-MMAE (bispecific antibody, HiPEG val-cit-PAB-MMAE attached via the C-terminal His6-tag, DAR 1) EVQLVESGGGVVQPGRSLRLSCAASGFSFSGYGMHWVRQAPGKGLEWVAYISYDGSNKYYADSVKGRFTISRDNSKNTLYLQMNSLRAEDTAVYYCAKDPAWGLRLGESSSYDFDIWGQGTMVTVSSGGGGSGGGGSGGGGSGGGGSGGGGSGGGGSEVQLLESGGGLVQPGGSLRLSCAASGFSFSSYAMSWVRQAPGKGLEWVSSIGENDGTTDYADSVKGRFTISRDNSKSMLYLQMNSLRVEDTAVYYCVKDGVHWGQGTLVTVSSAAAHHHHHH
REPORTED: 0.37
